Parameter: mean fluorescence relative to chimera. Scope: all listed entries.
- Tested Target: T1, mouse CD47 (mouse, UniProt Q61735 19-303)
- T1 construct: whole, on cells; also called CD47 on mouse RBCs; CD47 on 4T1 cells
- T1 sequence (looked up): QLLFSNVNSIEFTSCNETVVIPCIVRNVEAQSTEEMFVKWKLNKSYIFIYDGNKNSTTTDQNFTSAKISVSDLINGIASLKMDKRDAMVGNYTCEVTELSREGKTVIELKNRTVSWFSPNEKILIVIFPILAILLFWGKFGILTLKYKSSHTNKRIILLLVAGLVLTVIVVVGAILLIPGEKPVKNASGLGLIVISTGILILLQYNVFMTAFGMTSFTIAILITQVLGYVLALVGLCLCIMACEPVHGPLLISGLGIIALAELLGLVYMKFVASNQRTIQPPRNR
- Protocol Details: FACS, mouse RBCs, supernatant 10 ng/ml
- Experimental: RBCs are incubated for 60 minutes on ice with tissue culture supernatants containing the secreted humanized antibodies at a concentration of 10 ng/ml in a solution of phosphate buffered saline, pH 7.2, 2.5 mM EDTA (PBS+E), or with various concentrations of purified antibodies. […] Antibody binding is quantitated by comparison of mean fluorescence values relative to that of chimeric antibody >VxP037-01LC (SEQ ID NO:7))/>VxP037-01HC (SEQ ID NO:57). […]
Measurement Label: mean fluorescence relative to chimera

Binder	Measurement Label	Data Value
Clone 4 (pVxK7b-037-hum04-LC / pVxK7b-037-hum04-HC) (antibody, human IgG1, kappa, V domains shown) VH: QVQLQESGPGLVKPSQTLSLTCTVSGYTFTNYYVFWVRQAPGKGLEWVSDINPVNGDTNFNEKFKNRVTISVDTSKNQFSLKLSSVTAADTAVYYCARGGYTMDYWGQGTLVTVSS VL: DIQMTQSPSSLSASVGDRVTITCRSSQSLVHSNGNTYLHWYLQKPGQSPQLLIYKVSYRFSGIPARFSGSGSGTEFTLTISSLQSEDFAVYYCSQNTHVPRTFGQGTKVEIKR	mean fluorescence relative to chimera	0.6
Clone 7 (pVxK7b-037-hum07-LC / pVxK7b-037-hum07-HC) (antibody, human IgG1, kappa, V domains shown) VH: QVQLQESGPGLVKPGATVKISCKVSGYTFTNYYVFWVRQARGQRLEWIGDINPVNGDTNFNEKFKNRVTITADKSTSTAYMELSSLRSEDTAVYYCARGGYTMDYWGQGTLVTVSS VL: DIVMTQTPLSLPVTPGEPASISCRSSQSLVHSNGNTYLHWYLQKPGQSPQLLIYKVSYRFSGVPDRFSGSGSGTDFTLKISRVEAEDVGVYYCSQNTHVPRTFGQGTKVEIKR	mean fluorescence relative to chimera	0.4
chimeric antibody VxP037-01LC-Pro/VxP037-01HC-Pro (antibody, human IgG1, kappa, V domains shown, also called Chimera; VxP037-01LC/VxP037-01HC) VH: EVQLQQFGAELVKPGASMKLSCKASGYTFTNYYVFWVKQRPGQGLEWIGDINPVNGDTNFNEKFKNKATLTVDKSSTTTYLQLSSLTSEDSAVYYCTRGGYTMDYWGQGTLVTVSS VL: DVVMTQTPLSLSVSLGDQASISCRSSQSLVHSNGNTYLHWYLQKPGQSPKLLIYKVSYRFSGVPDRFSGSGSGTDFTLKISRVEAEDLGVYFCSQNTHVPRTFGQGTKVEIKR	mean fluorescence relative to chimera	1
Clone 22 (pVxK7b-037-hum22-LC / pVxK7b-037-hum22-HC) (antibody, human IgG1, kappa, V domains shown) VH: QVQLQESGPGLVKPSQTLSLTCTVSGYTFTNYYVFWVRQARGQRLEWIGDINPVNGDTNFNEKFKNRLTISKDTSKNQVVLTMTNMDPVDTATYYCARGGYTMDYWGQGTLVTVSS VL: EIVLTQSPATLSVSPGERATLSCRSSQSLVHSNGNTYLHWYQQKPGQAPRLLIYKVSYRFSGVPSRFSGSGSGTDFTFTISSLEAEDAATYYCSQNTHVPRTFGQGTKVEIKR	mean fluorescence relative to chimera	1.2
Clone 16 (pVxK7b-037-hum16-LC / pVxK7b-037-hum16-HC) (antibody, human IgG1, kappa, V domains shown) VH: QVQLQESGPGLVKPSQTLSLTCTVSGYTFTNYYVFWVRQARGQRLEWIGDINPVNGDTNFNEKFKNRVTISADKSISTAYLQWSSLKASDTAMYYCARGGYTMDYWGQGTLVTVSS VL: AIQLTQSPSSLSASVGDRVTITCRSSQSLVHSNGNTYLHWYQQKPGQAPRLLIYKVSYRFSGVPDRFSGSGSGTDFTLKISRVEAEDVGVYYCSQNTHVPRTFGQGTKVEIKR	mean fluorescence relative to chimera	1

Provenance of the data: patent US20180051081A1
